- system.under.test: Agrobacterium tumefaciens NDH-II (Agrobacterium fabrum (Agrobacterium tumefaciens), UniProt Q7CY19)
- Sequence (Q7CY19 entry or part of it): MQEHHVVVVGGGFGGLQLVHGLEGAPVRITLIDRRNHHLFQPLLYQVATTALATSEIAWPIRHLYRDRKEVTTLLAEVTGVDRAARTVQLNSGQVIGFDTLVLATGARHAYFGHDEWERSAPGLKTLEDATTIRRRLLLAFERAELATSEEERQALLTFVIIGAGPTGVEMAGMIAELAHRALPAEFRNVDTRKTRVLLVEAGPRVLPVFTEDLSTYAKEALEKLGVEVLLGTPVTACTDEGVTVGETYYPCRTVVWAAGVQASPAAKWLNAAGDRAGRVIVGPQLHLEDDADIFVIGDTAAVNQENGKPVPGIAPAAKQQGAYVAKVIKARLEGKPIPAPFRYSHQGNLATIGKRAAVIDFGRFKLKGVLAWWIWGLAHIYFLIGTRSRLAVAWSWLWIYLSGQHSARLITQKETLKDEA
property.label: IC50 (µM)
Give bare numbers, in µM.

Need IC50, item c1ccc2c(c1)[I+]c1ccccc1-2
10
